Cited source: paper PMC10726135

experimentalSystem: HNF4alpha2 (COS-7 nuclear extract) (Homo sapiens, UniProt P41235 1-474)
Sequence: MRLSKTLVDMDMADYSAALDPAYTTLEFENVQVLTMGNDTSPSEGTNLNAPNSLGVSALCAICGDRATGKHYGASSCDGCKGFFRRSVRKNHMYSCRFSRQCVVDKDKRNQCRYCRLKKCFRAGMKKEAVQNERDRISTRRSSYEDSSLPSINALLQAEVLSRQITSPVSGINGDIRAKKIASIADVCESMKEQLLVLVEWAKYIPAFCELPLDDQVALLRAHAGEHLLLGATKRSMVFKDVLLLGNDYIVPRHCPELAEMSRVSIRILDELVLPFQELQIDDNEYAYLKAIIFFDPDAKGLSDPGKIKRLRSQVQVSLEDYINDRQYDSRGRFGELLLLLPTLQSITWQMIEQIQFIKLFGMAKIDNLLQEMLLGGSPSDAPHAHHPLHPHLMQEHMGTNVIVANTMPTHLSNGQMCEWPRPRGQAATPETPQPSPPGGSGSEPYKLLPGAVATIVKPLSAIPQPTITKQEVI
assayExplanation: protein-binding microarray; COS-7 nuclear extract on double-stranded Agilent 4x180k PBM; binding buffer, salt, pH and temperature not given in the material; high values mean tight binding
testConditions: chain copies: 2; label: 3' end of strand 1 on the slide; dsDNA, one strand shown
Whole data set: some 18,000 sequences, median “log2 normalized intensity” near 0.39, cut for the highest 2% near 6.6. What follows is part of a selection rich in the highest values, with near analogues and random picks from the rest.
propertyMeasured: binding signal
Record the result as number plus unit.

AGTCCTGACCTTGGACTCTGCCCTTGGCCTGCCTAGGGAGATTAGAGTATCGGTCGA 5.81 log2 normalized intensity
ATCAAGGATTTTTTCTTGGACTTTGGTCATGCCTAGGGAGATTAGAGTATCGGTCGA 8.1 log2 normalized intensity
GAAATGGTGGACTTTGTAGCTCAAACAGTCGCCTAGGGAGATTAGAGTATCGGTCGA 3.13 log2 normalized intensity
ATGACCTCTTTTAGTAACTGACTTTAACTTGCCTAGGGAGATTAGAGTATCGGTCGA 1.5 log2 normalized intensity
CCCTTTGCACATGCCCCTCCCAGGGACACAGCCTAGGGAGATTAGAGTATCGGTCGA 3.12 log2 normalized intensity
TGTCCCTCCTGACCTTTGGACTTGATAGAGGCCTAGGGAGATTAGAGTATCGGTCGA 9.11 log2 normalized intensity
CCCGGCAGCCCTGCTCCCCGCCTTGGCCTCGCCTAGGGAGATTAGAGTATCGGTCGA 1.56 log2 normalized intensity
ACATCAGAAGTTGGACTTTGTACATTCCAAGCCTAGGGAGATTAGAGTATCGGTCGA 7.69 log2 normalized intensity
TCAGTTTGGCTCTTATGTCCCTCCTGACCTGCCTAGGGAGATTAGAGTATCGGTCGA 3.25 log2 normalized intensity
CCACTCTTTTTTAGACTTTGACCTCCATATGCCTAGGGAGATTAGAGTATCGGTCGA 7.61 log2 normalized intensity

-- ask Report binding signal for GACTTTGGTTGGATTTCTTGGCTTCTCTTGGCCTAGGGAGATTAGAGTATCGGTCGA please.
-- reply 1.04 log2 normalized intensity

-- ask What do we get for CCTTTTTGGAATGTGTTTGCATGACTCATAGCCTAGGGAGATTAGAGTATCGGTCGA ?
-- reply 1.77 log2 normalized intensity

-- ask Follow-up item: ACCTTTGTCCTCATTGAGCCCTCCCCTTGTGCCTAGGGAGATTAGAGTATCGGTCGA
-- reply 4.33 log2 normalized intensity

-- ask Continue with CAAAGCCCCTTTCCACTCTACCGTCCTCCCGCCTAGGGAGATTAGAGTATCGGTCGA
-- reply 1.91 log2 normalized intensity

-- ask Same question for AACTCTCAGTTTGGCTCTTATGTCCCTCCTGCCTAGGGAGATTAGAGTATCGGTCGA please.
-- reply 1.35 log2 normalized intensity

-- ask Follow-up item: CCTGACCTGCCCTTTGTCCCTCCTGCTAGTGCCTAGGGAGATTAGAGTATCGGTCGA
-- reply 3.3 log2 normalized intensity

-- ask Repeat for the following sequence: GCATGGAATGACTTTGGGGAAATGACCTTTGCCTAGGGAGATTAGAGTATCGGTCGA
-- reply 7.23 log2 normalized intensity

-- ask Now consider GATGACATCATCTGTTTGTACGCGTCGAACGCCTAGGGAGATTAGAGTATCGGTCGA .
-- reply -0.199 log2 normalized intensity

-- ask Subsequent entry: ACCAGACTACCTCTTTAGGCTGGACTCTGAGCCTAGGGAGATTAGAGTATCGGTCGA
-- reply 3.96 log2 normalized intensity

----------
Listing of entries alongside the reported binding signal.
experimentalSystem: HNF4alpha2 (COS-7 nuclear extract) (Homo sapiens, UniProt P41235 1-474)
Sequence: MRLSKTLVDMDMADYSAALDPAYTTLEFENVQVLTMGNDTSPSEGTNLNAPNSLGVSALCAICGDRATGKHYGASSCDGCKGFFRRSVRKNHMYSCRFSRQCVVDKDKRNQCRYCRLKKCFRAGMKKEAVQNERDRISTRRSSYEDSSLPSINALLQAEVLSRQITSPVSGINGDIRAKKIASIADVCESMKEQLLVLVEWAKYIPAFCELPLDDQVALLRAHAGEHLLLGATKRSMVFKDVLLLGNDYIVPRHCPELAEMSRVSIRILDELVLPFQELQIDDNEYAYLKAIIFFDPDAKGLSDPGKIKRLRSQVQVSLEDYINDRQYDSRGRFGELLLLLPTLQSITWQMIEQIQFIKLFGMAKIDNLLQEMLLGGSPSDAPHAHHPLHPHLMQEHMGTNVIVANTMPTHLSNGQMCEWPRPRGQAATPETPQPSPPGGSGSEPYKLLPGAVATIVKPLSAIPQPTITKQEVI
assayExplanation: protein-binding microarray; COS-7 nuclear extract on double-stranded Agilent 4x180k PBM; binding buffer, salt, pH and temperature not given in the material; high values mean tight binding
testConditions: chain copies: 2; label: 3' end of strand 1 on the slide; dsDNA, one strand shown
Whole data set: some 18,000 sequences, median “log2 normalized intensity” near 0.39, cut for the highest 2% near 6.6. The sample holds the highest values, similar sequences and a random draw of the others, so the mix is not that of the screen.

GGGGTCAAAGTCCCCTGAGCTTGAGTCCATGCCTAGGGAGATTAGAGTATCGGTCGA 5.36 log2 normalized intensity
CCTGCCTCTCCTCTGAGCTTCATCCTGACCGCCTAGGGAGATTAGAGTATCGGTCGA 1.62 log2 normalized intensity
ACTGCTCCAGTGGACATTGGCCCTTTGACCGCCTAGGGAGATTAGAGTATCGGTCGA 5.99 log2 normalized intensity

-- ask I am curious: what binding signal value has been reported for TTTGAAGTTTAGAGATGCCTATAGGGTCTTGCCTAGGGAGATTAGAGTATCGGTCGA ?
-- reply 0.736 log2 normalized intensity

-- ask Please do the same for CTGGGGCCACCCTCCTCTCTGGGTCAAAGGGCCTAGGGAGATTAGAGTATCGGTCGA as well.
-- reply 4.74 log2 normalized intensity

-- ask Another sequence to look at: GCAGATGTGTCTTTATAACAGACTGTAGGCGCCTAGGGAGATTAGAGTATCGGTCGA
-- reply 0.596 log2 normalized intensity

-- ask Moving on to the next sequence: AAAGGTCATCGCACCGGCAGGGGAGAACTTGCCTAGGGAGATTAGAGTATCGGTCGA
-- reply 0.284 log2 normalized intensity

-- ask Then this sequence: GAGGTGTCAGCCACCCCTCCTCCTGGGGGCGCCTAGGGAGATTAGAGTATCGGTCGA
-- reply 2.64 log2 normalized intensity

-- ask And for GTCCTTGATAAGCAAGATGACTTTGGTCTAGCCTAGGGAGATTAGAGTATCGGTCGA ?
-- reply 1.78 log2 normalized intensity

----------
experimentalSystem: HNF4alpha2 (COS-7 nuclear extract) (Homo sapiens, UniProt P41235 1-474)
Sequence: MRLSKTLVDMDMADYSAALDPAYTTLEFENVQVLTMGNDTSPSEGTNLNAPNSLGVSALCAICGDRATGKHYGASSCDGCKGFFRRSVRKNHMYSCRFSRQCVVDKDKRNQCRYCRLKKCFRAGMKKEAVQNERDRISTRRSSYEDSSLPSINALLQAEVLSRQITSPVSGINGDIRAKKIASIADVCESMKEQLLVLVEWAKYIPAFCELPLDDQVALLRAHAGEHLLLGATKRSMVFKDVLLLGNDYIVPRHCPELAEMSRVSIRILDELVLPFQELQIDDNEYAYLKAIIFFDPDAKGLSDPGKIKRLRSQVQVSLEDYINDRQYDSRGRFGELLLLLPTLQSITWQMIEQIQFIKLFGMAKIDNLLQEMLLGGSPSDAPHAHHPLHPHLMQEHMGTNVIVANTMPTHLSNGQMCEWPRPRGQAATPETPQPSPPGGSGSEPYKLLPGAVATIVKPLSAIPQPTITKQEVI
assayExplanation: protein-binding microarray; COS-7 nuclear extract on double-stranded Agilent 4x180k PBM; binding buffer, salt, pH and temperature not given in the material; high values mean tight binding
testConditions: chain copies: 2; label: 3' end of strand 1 on the slide; dsDNA, one strand shown
Whole data set: some 18,000 sequences, median “log2 normalized intensity” near 0.39, cut for the highest 2% near 6.6. Many of the other results were omitted from the sample, so the highest values are more common in it than they were.
Could you please mark 1.0 for values of binding signal below 1 log2 normalized intensity and 0.0 for values at or above it?

Solved cases below.
CGCATTTCTGCTTCTTCTCATTCTTGGAATGCCTAGGGAGATTAGAGTATCGGTCGA 0.0
CCTTTTTTGAAGGTTAAAGTCCATTTTTGAGCCTAGGGAGATTAGAGTATCGGTCGA 0.0
TGCCTCTTTTCTGCTTTTGGAATTTGACCTGCCTAGGGAGATTAGAGTATCGGTCGA 0.0
AGAAAGACATGTTTCTAACTGCCCGCATTCGCCTAGGGAGATTAGAGTATCGGTCGA 1.0
CTATCTGCCTGCAGGAGAGAGCAAAGTCCAGCCTAGGGAGATTAGAGTATCGGTCGA 0.0

-- ask Would you kindly verify if binding signal of CTTTTCTGCTTTTGGAATTTGACCTCATTTGCCTAGGGAGATTAGAGTATCGGTCGA is strictly less than 1 log2 normalized intensity?
-- reply 0.0

-- ask Now consider GTTAGATTAGTGTGCAGCTTTGTGTAAAACGCCTAGGGAGATTAGAGTATCGGTCGA .
-- reply 1.0

-- ask What do we get for AAGTCCAGTCTTATCTGAGACTCAAGGCAAGCCTAGGGAGATTAGAGTATCGGTCGA ?
-- reply 1.0

-- ask Try this sequence next: CCAAAGTCCAAAGTCCAGTCTTATCTGAGAGCCTAGGGAGATTAGAGTATCGGTCGA
-- reply 0.0
